- assayed target: cGAS (Homo sapiens, UniProt Q8N884)
- Sequence (Q8N884 whole entry): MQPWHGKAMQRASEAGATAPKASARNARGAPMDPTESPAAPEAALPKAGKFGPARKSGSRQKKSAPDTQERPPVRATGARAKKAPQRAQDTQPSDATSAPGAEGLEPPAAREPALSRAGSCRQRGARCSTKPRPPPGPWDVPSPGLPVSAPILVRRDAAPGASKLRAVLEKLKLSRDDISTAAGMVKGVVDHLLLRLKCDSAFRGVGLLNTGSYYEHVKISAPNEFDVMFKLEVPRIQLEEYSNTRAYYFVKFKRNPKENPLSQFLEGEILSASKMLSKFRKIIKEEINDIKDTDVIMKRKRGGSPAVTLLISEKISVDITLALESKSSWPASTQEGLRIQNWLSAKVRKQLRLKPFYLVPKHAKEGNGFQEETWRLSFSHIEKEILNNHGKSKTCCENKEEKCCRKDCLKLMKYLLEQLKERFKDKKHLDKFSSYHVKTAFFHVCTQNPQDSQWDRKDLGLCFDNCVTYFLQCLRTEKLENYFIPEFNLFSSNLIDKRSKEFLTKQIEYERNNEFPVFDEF
- assay protocol: Transcreener cGAS enzymatic assay (FP)
- Type: biochemical
- stated conditions: standard conditions: 100 μM ATP and GTP, 62.5 nM bp ISD, 60 minute reactions; read-out: IC50 FP Standard
measured property: IC50

Reference set (2 entries):
Cc1nc(N2C[C@@H](CC(=O)Nc3ccc(N4CCOC4=O)cc3)C[C@H]2C(=O)O)c2oc3ccccc3c2n1 100 to 200 nM
Cc1nc(N2C[C@@H](CC(=O)Nc3ccc(-c4ccc5[nH]ncc5c4)cc3)C[C@H]2C(=O)O)c2oc3ccccc3c2n1 < 50 nM

Input: # lookup: IC50 of Cc1nc(N2C[C@@H](CC(=O)Nc3cccc(-c4c[nH]cn4)c3)C[C@H]2C(=O)O)c2oc3ccccc3c2n1
Output: 100 to 200 nM

Input: # lookup: IC50 of COc1cccc(-c2ccc(NC(=O)C[C@H]3C[C@@H](C(=O)O)N(c4nc(C)nc5c4oc4ccccc45)C3)cc2)c1
Output: < 50 nM

Input: # lookup: IC50 of Cc1nc(N2C[C@@H](CC(=O)Nc3ccccc3C)C[C@H]2C(=O)O)c2oc3ccccc3c2n1
Output: 200 to 1000 nM

Input: # lookup: IC50 of Cc1nc(N2C[C@@H](CC(=O)Nc3ccc(-c4ccnc(O)c4)cc3)C[C@H]2C(=O)O)c2oc3ccccc3c2n1
Output: < 50 nM

Input: # lookup: IC50 of Cc1nc(N2C[C@@H](CC(=O)Nc3ccccc3Cl)C[C@H]2C(=O)O)c2oc3ccccc3c2n1
Output: 200 to 1000 nM

Input: # lookup: IC50 of Cc1nc(N2C[C@@H](CC(=O)Nc3ccc4nc[nH]c4c3)C[C@H]2C(=O)O)c2oc3ccccc3c2n1
Output: 100 to 200 nM

---

- assay protocol: Kinetic aqueous solubility (KSOL) in PBS, pH 7.4
- Type: physicochemical
- stated conditions: aqueous buffer, kinetic from dmso stock
measured property: solubility kinetic (µM)

compound	solubility kinetic / µM
Cc1nc(N2C[C@@H](CC(=O)Nc3ccc4[nH]ccc4c3)C[C@H]2C(=O)O)c2oc3ccccc3c2n1	487

(A) Cc1nc(N2C[C@@H](CC(=O)Nc3ccc4ncccc4c3)C[C@H]2C(=O)O)c2oc3ccccc3c2n1
(B) Cc1nc(N2C[C@@H](CC(=O)Nc3cccc(-c4ccccc4)c3)C[C@H]2C(=O)O)c2oc3ccccc3c2n1
(C) Cc1nc(N2C[C@@H](CC(=O)Nc3ccc(-c4ccccc4)cc3)C[C@H]2C(=O)O)c2oc3ccccc3c2n1
(D) Cc1nc(N2C[C@@H](CC(=O)Nc3ccc(Cl)c(Cl)c3)C[C@H]2C(=O)O)c2oc3ccccc3c2n1
Input: Ascending by solubility kinetic, please: list the compounds accordingly. Please list each label once, in the requested order.
Output: C, D, B, A
(C: 8 µM, D: 80 µM, B: 155 µM, A: 527 µM)

---

- Test system: MDR1 (P-glycoprotein)
- assay protocol: MDCK-MDR1 permeability A→B
- Format: in vitro ADME, Canine
- stated conditions: dog; MDCK cells expressing human MDR1, A→B; read-out: MDCK-MDR Permeability A→B
Parameter Papp A→B: see the listing below.

molecule	measured property	measurement
Cc1cccc(NC(=O)C[C@H]2C[C@@H](C(=O)O)N(c3nc(C)nc4c3oc3ccccc34)C2)c1 [Compound 16]	Papp A→B	1 to 5 ×10⁻⁶ cm/s
Cc1nc(N2C[C@@H](CC(=O)Nc3ccc4cccnc4c3)C[C@H]2C(=O)O)c2oc3ccccc3c2n1 [Compound 35]	Papp A→B	1 to 5 ×10⁻⁶ cm/s
Cc1nc(N2C[C@@H](CC(=O)Nc3ccc4[nH]ccc4c3)C[C@H]2C(=O)O)c2oc3ccccc3c2n1 [Compound 1]	Papp A→B	1 to 5 ×10⁻⁶ cm/s

Input: # lookup: Papp A→B of Cc1ccc(NC(=O)C[C@H]2C[C@@H](C(=O)O)N(c3nc(C)nc4c3oc3ccccc34)C2)cc1 [Compound 15]
Output: 1 to 5 ×10⁻⁶ cm/s

Input: # lookup: Papp A→B of Cc1nc(N2C[C@@H](CC(=O)Nc3ccc(C(F)(F)F)cc3)C[C@H]2C(=O)O)c2oc3ccccc3c2n1 [Compound 24]
Output: 1 to 5 ×10⁻⁶ cm/s

---

- assayed target: cGAS (Homo sapiens)
- assay protocol: Transcreener cGAS enzymatic assay (FP)
- Type: biochemical
- stated conditions: standard conditions: 100 μM ATP and GTP, 62.5 nM bp ISD, 60 minute reactions; read-out: IC50 FP Standard
measured property: IC50

Reference set (2 entries):
Cc1nc(N2C[C@@H](CC(=O)Nc3ccc(-c4ccccc4)c(C(F)(F)F)c3)C[C@H]2C(=O)O)c2oc3ccccc3c2n1 100 to 200 nM
Cc1nc(N2C[C@@H](CC(=O)Nc3ccc(-c4cccc(N)n4)cc3)C[C@H]2C(=O)O)c2oc3ccccc3c2n1 50 to 100 nM

Alright, here's another compound for you.
Input: Lab note: need IC50 for Cc1nc(N2C[C@@H](CC(=O)Nc3ccc(-c4cccc(CO)c4)cc3)C[C@H]2C(=O)O)c2oc3ccccc3c2n1 on cGAS (Homo sapiens), anyone have it?
Output: < 50 nM

---

- assay protocol: Kinetic aqueous solubility (KSOL) in PBS, pH 7.4
- Assay type: physicochemical
- stated conditions: aqueous buffer, kinetic from dmso stock
measured property: solubility kinetic (µM)

compound	unit label	measurement
Cc1nc(N2C[C@@H](CC(=O)Nc3ccncc3)C[C@H]2C(=O)O)c2oc3ccccc3c2n1 [Compound A, reference compound]	µM	542
COc1cc(NC(=O)C[C@H]2C[C@@H](C(=O)O)N(c3nc(C)nc4c3oc3ccccc34)C2)ccn1	µM	496
Cc1nc(N2C[C@@H](CC(=O)Nc3ccc(-c4cccnc4)cc3)C[C@H]2C(=O)O)c2oc3ccccc3c2n1	µM	547
Cc1nc(N2C[C@@H](CC(=O)N(C)C3CCCC3)C[C@H]2C(=O)O)c2oc3ccccc3c2n1	µM	506

---

- System: MDR1 (P-glycoprotein)
- assay protocol: MDCK-MDR1 permeability A→B
- Format: in vitro ADME, Canine
- stated conditions: dog; MDCK cells expressing human MDR1, A→B; read-out: MDCK-MDR Permeability A→B
Parameter Papp A→B: see the listing below.

Reference set (2 entries):
compound	measurement
Cc1nc(N2C[C@@H](CC(=O)Nc3ccc(-c4ccccc4)cc3)C[C@H]2C(=O)O)c2oc3ccccc3c2n1 [Compound 5]	5 to 10 ×10⁻⁶ cm/s
Cc1nc(N2C[C@@H](CC(=O)Nc3cccc(Cl)c3)C[C@H]2C(=O)O)c2oc3ccccc3c2n1 [Compound 22]	1 to 5 ×10⁻⁶ cm/s

Input: # lookup: Papp A→B of Cc1nc(N2C[C@@H](CC(=O)Nc3ccccc3Cl)C[C@H]2C(=O)O)c2oc3ccccc3c2n1 [Compound 23]
Output: 1 to 5 ×10⁻⁶ cm/s

Input: # lookup: Papp A→B of Cc1nc(N2C[C@@H](CC(=O)Nc3ccccc3F)C[C@H]2C(=O)O)c2oc3ccccc3c2n1 [Compound 20]
Output: 1 to 5 ×10⁻⁶ cm/s

Input: # lookup: Papp A→B of Cc1nc(N2C[C@@H](CC(=O)Nc3ccc(Cl)cc3)C[C@H]2C(=O)O)c2oc3ccccc3c2n1 [Compound 21]
Output: 1 to 5 ×10⁻⁶ cm/s

Input: # lookup: Papp A→B of Cc1nc(N2C[C@@H](CC(=O)Nc3ccc(Cl)c(Cl)c3)C[C@H]2C(=O)O)c2oc3ccccc3c2n1 [Compound 26]
Output: 5 to 10 ×10⁻⁶ cm/s

Input: # lookup: Papp A→B of Cc1nc(N2C[C@@H](CC(=O)Nc3cccc(C(F)(F)F)c3)C[C@H]2C(=O)O)c2oc3ccccc3c2n1 [Compound 25]
Output: 1 to 5 ×10⁻⁶ cm/s

---

- Test system: MDR1 (P-glycoprotein)
- assay protocol: MDCK-MDR1 permeability A→B
- Type: in vitro ADME, Canine
- stated conditions: dog; MDCK cells expressing human MDR1, A→B; read-out: MDCK-MDR Permeability A→B
Parameter Papp A→B: see the listing below.

Reference set (2 entries):
compound	Papp A→B
Cc1nc(N2C[C@@H](CC(=O)Nc3ccc(N4CCCCC4)cc3)C[C@H]2C(=O)O)c2oc3ccccc3c2n1 [Compound 7]	1 to 5 ×10⁻⁶ cm/s
Cc1nc(N2C[C@@H](CC(=O)Nc3cccc(F)c3)C[C@H]2C(=O)O)c2oc3ccccc3c2n1 [Compound 19]	1 to 5 ×10⁻⁶ cm/s

Input: # lookup: Papp A→B of COc1cccc(-c2ccc(NC(=O)C[C@H]3C[C@@H](C(=O)O)N(c4nc(C)nc5c4oc4ccccc45)C3)cc2)c1 [Compound 50]
Output: 5 to 10 ×10⁻⁶ cm/s

Recorded values, source patent US20240174684A1.
